src = patent US20260242735A1

# assay-system: human CD33 C325A (human, UniProt P20138 18-364)
# Sequence (P20138 18-364 C325A limits assumed): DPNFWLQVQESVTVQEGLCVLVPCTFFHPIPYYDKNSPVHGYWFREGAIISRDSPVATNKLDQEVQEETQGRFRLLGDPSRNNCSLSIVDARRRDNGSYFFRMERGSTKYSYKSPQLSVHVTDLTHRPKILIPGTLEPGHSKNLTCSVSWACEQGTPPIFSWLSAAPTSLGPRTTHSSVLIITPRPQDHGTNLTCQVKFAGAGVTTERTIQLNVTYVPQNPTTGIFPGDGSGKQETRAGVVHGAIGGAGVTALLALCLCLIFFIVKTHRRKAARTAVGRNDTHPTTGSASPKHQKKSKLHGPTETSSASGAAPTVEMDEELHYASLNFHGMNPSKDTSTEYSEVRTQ
# experiment: flow cytometry, alanine scan
value-kind: Mean % WT Binding

INSERT INTO results (binder, value_kind, value_observed) VALUES
  ('Refmab #3 (antibody, V domains shown, The alanine scan used IgG or Fab) VH: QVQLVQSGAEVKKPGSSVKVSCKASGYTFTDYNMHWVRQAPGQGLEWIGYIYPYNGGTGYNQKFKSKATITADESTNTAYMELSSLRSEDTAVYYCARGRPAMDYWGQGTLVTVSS VL: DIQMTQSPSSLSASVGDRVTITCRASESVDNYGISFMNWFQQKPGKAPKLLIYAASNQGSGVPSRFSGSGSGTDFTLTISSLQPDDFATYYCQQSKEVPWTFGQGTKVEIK', 'Mean % WT Binding', '91.2 % of WT'),
  ('Refmab #4 (antibody, V domains shown, The alanine scan used IgG or Fab) VH: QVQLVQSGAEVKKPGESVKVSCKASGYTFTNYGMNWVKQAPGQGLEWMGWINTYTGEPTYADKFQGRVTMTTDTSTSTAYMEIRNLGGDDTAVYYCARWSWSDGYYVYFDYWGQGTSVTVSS VL: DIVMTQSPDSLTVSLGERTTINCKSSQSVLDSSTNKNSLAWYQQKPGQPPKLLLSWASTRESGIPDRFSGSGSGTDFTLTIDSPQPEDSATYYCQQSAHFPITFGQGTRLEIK', 'Mean % WT Binding', '88.6 % of WT'),
  ('Refmab #2 (antibody, V domains shown, The alanine scan used IgG or Fab) VH: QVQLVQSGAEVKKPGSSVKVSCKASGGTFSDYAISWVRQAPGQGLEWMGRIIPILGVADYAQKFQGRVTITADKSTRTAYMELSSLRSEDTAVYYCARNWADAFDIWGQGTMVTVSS VL: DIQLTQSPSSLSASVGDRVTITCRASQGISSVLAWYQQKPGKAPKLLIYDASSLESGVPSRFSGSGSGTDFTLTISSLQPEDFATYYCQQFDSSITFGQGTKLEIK', 'Mean % WT Binding', '109 % of WT'),
  ('Refmab #1 (antibody, V domains shown, The alanine scan used IgG or Fab; also called hP67.6) VH: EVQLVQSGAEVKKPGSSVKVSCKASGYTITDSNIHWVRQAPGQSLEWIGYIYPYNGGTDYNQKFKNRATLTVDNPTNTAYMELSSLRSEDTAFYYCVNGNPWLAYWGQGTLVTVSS VL: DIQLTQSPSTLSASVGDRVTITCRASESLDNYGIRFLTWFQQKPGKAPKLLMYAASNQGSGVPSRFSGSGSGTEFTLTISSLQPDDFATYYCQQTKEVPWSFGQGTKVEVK', 'Mean % WT Binding', '80.1 % of WT');
